- target or system: Cannabinoid receptor 1 (Homo sapiens)
- Sequence (P21554 whole entry): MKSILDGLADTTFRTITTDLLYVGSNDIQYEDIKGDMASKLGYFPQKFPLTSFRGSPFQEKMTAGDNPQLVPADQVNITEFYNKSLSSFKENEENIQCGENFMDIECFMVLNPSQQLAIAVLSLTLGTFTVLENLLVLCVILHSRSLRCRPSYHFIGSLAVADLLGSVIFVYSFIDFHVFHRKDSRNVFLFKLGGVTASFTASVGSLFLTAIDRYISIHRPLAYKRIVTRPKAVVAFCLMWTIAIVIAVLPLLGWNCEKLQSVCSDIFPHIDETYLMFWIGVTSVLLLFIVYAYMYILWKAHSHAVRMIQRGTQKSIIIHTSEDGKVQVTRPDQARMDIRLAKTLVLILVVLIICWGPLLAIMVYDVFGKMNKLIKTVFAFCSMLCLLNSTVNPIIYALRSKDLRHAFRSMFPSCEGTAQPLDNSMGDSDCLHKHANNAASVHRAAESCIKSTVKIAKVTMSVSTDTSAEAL
- measurement protocol: Antagonistic activity towards cannabinoid receptor 1 expressed as [3H]Arachidonic acid release in CHO cells
- Type: functional, cell-based
- condition info: read-out: pA2 (converted)
param class (str): category from Kb; see ranges lower range = under 0.8 nM, middle range = from 0.8 nM up to 3 nM, upper range = 3 nM and over

| compound | class |
| --- | --- |
| CN=C(NS(=O)(=O)c1ccc(C(F)(F)F)cc1)N1C[C@@H](c2ccccc2)C(c2ccc(Cl)cc2)=N1 | upper range |
| CN/C(=N/S(=O)(=O)c1ccc(C(F)(F)F)cc1)N1C[C@H](c2ccccc2)C(c2ccc(Cl)cc2)=N1 | middle range |
| CNC(=NS(=O)(=O)c1ccc(C(F)(F)F)cc1)N1CC(c2ccccc2)C(c2ccc(Cl)cc2)=N1 (stereo not drawn) | lower range |
| C/N=C(\NC(=O)c1ccc(Cl)cc1)N1CC(c2ccccc2)C(c2ccc(Cl)cc2)=N1 (stereo not drawn) | middle range |
| C/N=C(\NS(=O)(=O)c1ccc(Cl)cc1)N1CC(c2ccccc2)C(c2ccc(F)cc2)=N1 (stereo not drawn) | upper range |
| NC(=NS(=O)(=O)c1ccc(Cl)cc1)N1CC(c2ccccc2)C(c2ccc(Cl)cc2)=N1 (stereo not drawn) | lower range |
| C/N=C(\NS(=O)(=O)c1c(C)cc(C)cc1C)N1CC(c2ccccc2)C(c2ccc(Cl)cc2)=N1 (stereo not drawn) | lower range |
| C/N=C(\NS(=O)(=O)c1ccccc1)N1CC(c2ccccc2)C(c2ccc(Cl)cc2)=N1 (stereo not drawn) | upper range |
| CN(C)/C(=N\S(=O)(=O)c1ccc(F)cc1)N1CC(c2ccccc2)C(c2ccc(Cl)cc2)=N1 (stereo not drawn) | upper range |
| C/N=C(\NS(=O)(=O)c1ccc(C)cc1)N1CC(c2ccccc2)C(c2ccc(Cl)cc2)=N1 (stereo not drawn) | middle range |
| CS/C(=N\S(=O)(=O)c1ccc(C(F)(F)F)cc1)N1CC(c2ccccc2)C(c2ccc(Cl)cc2)=N1 (stereo not drawn) | lower range |
| CN(C)/C(=N\S(=O)(=O)c1ccc(Cl)cc1)N1CC(c2ccccc2)C(c2ccc(Cl)cc2)=N1 (stereo not drawn) | upper range |
| Cc1ccc(S(=O)(=O)NC(=N)N2CC(c3ccccc3)C(c3ccc(Cl)cc3)=N2)cc1 (stereo not drawn) | upper range |
| N=C(NS(=O)(=O)c1ccc(F)cc1)N1CC(c2ccccc2)C(c2ccc(Cl)cc2)=N1 (stereo not drawn) | middle range |
| C/N=C(\NS(=O)(=O)c1ccc(F)cc1)N1CC(c2ccccc2)C(c2ccc(Cl)cc2)=N1 (stereo not drawn) | upper range |
| COc1ccc(S(=O)(=O)NC(=N)N2CC(c3ccccc3)C(c3ccc(Cl)cc3)=N2)cc1 (stereo not drawn) | upper range |
| Cc1cc(C)c(S(=O)(=O)NC(=N)N2CC(c3ccccc3)C(c3ccc(Cl)cc3)=N2)c(C)c1 (stereo not drawn) | lower range |

Recorded values, source ChEMBL document CHEMBL1148395.
